- TARGET: rat NTPDase2 (Rattus norvegicus, UniProt O35795)
- Sequence (O35795 1-495): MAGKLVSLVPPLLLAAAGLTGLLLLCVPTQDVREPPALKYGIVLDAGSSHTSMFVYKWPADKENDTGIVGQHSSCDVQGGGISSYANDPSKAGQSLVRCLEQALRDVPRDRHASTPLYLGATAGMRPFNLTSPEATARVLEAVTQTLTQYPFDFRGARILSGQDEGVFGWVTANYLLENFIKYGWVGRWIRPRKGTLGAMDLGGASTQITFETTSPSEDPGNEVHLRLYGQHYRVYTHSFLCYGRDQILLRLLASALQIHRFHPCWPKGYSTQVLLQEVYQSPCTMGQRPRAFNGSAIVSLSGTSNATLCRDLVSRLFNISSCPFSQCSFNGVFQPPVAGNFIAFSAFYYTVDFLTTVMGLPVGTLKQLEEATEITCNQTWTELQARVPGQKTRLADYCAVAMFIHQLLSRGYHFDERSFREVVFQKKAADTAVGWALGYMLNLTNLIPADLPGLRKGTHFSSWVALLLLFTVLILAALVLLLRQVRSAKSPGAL
MEASURE: Ki

Lab note: measured Ki of OCCN(CCO)c1nc(N2CCCCC2)c2nc(N(CCO)CCO)nc(N3CCCCC3)c2n1 [Dipyridamole, dipyridamole] was > 1 mM

----------
Target sequence: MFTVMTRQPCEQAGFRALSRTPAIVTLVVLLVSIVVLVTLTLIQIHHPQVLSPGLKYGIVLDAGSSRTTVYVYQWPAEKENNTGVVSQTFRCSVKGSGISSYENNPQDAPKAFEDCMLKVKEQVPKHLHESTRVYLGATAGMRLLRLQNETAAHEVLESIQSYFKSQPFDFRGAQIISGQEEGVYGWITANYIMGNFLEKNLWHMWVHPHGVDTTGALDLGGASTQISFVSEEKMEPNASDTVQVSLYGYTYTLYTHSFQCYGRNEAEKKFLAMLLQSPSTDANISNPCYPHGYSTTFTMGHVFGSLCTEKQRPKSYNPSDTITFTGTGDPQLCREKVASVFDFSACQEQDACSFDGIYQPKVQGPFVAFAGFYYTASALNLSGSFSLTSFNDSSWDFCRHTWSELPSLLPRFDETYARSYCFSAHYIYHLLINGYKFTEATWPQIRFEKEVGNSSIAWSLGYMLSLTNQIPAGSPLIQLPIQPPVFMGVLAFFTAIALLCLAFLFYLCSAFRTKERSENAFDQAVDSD
MEASURE: Ki

# Ki (molecule: `OCCN(CCO)c1nc(N2CCCCC2)c2nc(N(CCO)CCO)nc(N3CCCCC3)c2n1` ) is > 1000 µM

----------
- TARGET: rat NTPDase1 (Rattus norvegicus, UniProt P97687)
- Sequence (P97687 1-511): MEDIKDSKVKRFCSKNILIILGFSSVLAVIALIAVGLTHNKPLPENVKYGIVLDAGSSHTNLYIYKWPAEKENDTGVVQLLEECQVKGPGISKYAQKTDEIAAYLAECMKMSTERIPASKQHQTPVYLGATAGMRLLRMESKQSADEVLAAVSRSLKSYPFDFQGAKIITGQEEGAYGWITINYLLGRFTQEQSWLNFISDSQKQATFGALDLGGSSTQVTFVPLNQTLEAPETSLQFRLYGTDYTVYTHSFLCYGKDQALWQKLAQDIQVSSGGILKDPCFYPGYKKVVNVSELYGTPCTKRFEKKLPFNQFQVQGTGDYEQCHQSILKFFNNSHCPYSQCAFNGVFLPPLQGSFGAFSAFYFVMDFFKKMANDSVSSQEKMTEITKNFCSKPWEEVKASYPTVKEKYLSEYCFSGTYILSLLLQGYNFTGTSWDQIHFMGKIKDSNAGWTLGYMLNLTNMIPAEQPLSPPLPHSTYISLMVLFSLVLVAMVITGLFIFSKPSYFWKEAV
- Type: biochemical
MEASURE: Ki

For reference, reported Ki for OCCN(CCO)c1nc(N2CCCCC2)c2nc(N(CCO)CCO)nc(N3CCCCC3)c2n1 [Dipyridamole, dipyridamole] stands at > 1000 µM
